tested on: Escherichia coli ATCC 25922; assay type: cell-based; details: ATCC 25922
Ends that are not written are not given here.
Please go through the items and note down their MIC E. coli.
Numbers only, in µg/mL.

Data request: If you can, please state the reported MIC E. coli value of RWWRYWR-NH2 [LFM 18-24 R1, 7 W2,3, 6Y5NH2, ARG-TRP-TRP-ARG-TYR-TRP-ARG-CONH2] .
Data returned: 10

Could you tell me MIC E. coli for each of these substances? They are listed below.
1. RRWYRWWR-NH2 [LFM 17-24 R1,2, 8 W3, 7Y4NH2]
2. RRWQWRMKKLG-OH [LFB 20-30]
3. H-FKARRWQWRMKKLGA-OH [LFB A3]
4. RRWQWRMKKL-OH [LFB 20-29]
5. H-FKWRRWWWRMKKLWA-OH [LFB W3, 7, 14]

Data returned:
5
40
25
60
20

For each entry beneath this line, provide reported MIC E. coli.
1. PAWRKARRWAWRMKKLAA-OH [LFB 14-31 A2,6, 10, 17R4]
2. PAWFKAFRWAWRMLKKAA-OH [LFB 14-31 A2,6, 10, 17F7K16L14]
3. PAWRKAFRWAWRMKKLAA-OH [LFB 14-31 A2,6, 10, 17F7R4]
4. YRWARWWRR-NH2 [LFM 17-25 A4R2,8, 9W3, 7Y1NH2]

Data returned:
30
10
10
10
